Tested on: Haemophilus influenzae 1218
experiment notes: MIC, microtiter broth dilution (NCCLS M100-S14), H. influenzae 1218 (susceptible)
Assay type: cell-based
recorded conditions: Haemophilus influenzae 1218
measured parameter: MIC H. influenzae 1218 (µg/mL)
API: value field is a number in µg/mL; no unit string.

Which MIC H. influenzae 1218 is reported for this compound? CCC1OC(=O)C(C)C(=O)C(C)C(OC2OC(C)CC(N(C)C)C2O)C(C)(OC)CC(C)C(=O)C(C)C2N(C3CN(S(=O)(=O)c4cccc(Oc5ccc(F)cc5)c4)C3)C(=O)OC12C (stereo not drawn) 2

Which MIC H. influenzae 1218 is reported for this compound? CCC1OC(=O)C(C)C(=O)C(C)C(OC2OC(C)CC(N(C)C)C2O)C(C)(OC)CC(C)C(=O)C(C)C2N(C3CN(S(=O)(=O)c4cccnc4)C3)C(=O)OC12C (stereo not drawn) 0.25

Which MIC H. influenzae 1218 is reported for this compound? CCC1OC(=O)C(C)C(=O)C(C)C(OC2OC(C)CC(N(C)C)C2O)C(C)(OC)CC(C)C(=O)C(C)C2N(CC3CN(Cc4c(C)ccc5nc[nH]c45)C3)C(=O)OC12C.O=CO (stereo not drawn) 0.25

====

Assign MIC S. pneumo. 1175 to each entry below.
System: Streptococcus pneumoniae 1175
Format: cell-based
recorded conditions: S. pneumoniae 1175 (mefA); microtiter broth dilution
API: value field is a number in µg/mL; no unit string.

Which MIC S. pneumo. 1175 is reported for this compound? CCC1OC(=O)C(C)C(=O)C(C)C(OC2OC(C)CC(N(C)C)C2O)C(C)(OC)CC(C)C(=O)C(C)C2N(CC3CCCN3Cc3cccc4cnccc34)C(=O)OC12C (centres unmarked) [10.03] 0.25

Which MIC S. pneumo. 1175 is reported for this compound? CCC1OC(=O)C(C)C(=O)C(C)C(OC2OC(C)CC(N(C)C)C2O)C(C)(OC)CC(C)C(=O)C(C)C2N(CC3CCCN3C(=O)c3ccc(C)[nH]c3=O)C(=O)OC12C (centres unmarked) [10.48] 0.5

Which MIC S. pneumo. 1175 is reported for this compound? CCC1OC(=O)C(C)C(=O)C(C)C(OC2OC(C)CC(N(C)C)C2O)C(C)(OC)CC(C)C(=O)C(C)C2N(CC3CCCN3C(=O)c3ccc(-n4cccn4)nc3)C(=O)OC12C.O=CO (centres unmarked) [10.13] 0.5

Which MIC S. pneumo. 1175 is reported for this compound? CCC1OC(=O)C(C)C(=O)C(C)C(OC2OC(C)CC(N(C)C)C2O)C(C)(OC)CC(C)C(=O)C(C)C2N(CC3C4CN(C(=O)c5cccc(C#N)c5)CC43)C(=O)OC12C (centres unmarked) [16.05] 1.56

====

Assign MIC H. influenzae 1218 to each entry below.
Test system: Haemophilus influenzae 1218
experiment notes: MIC, microtiter broth dilution (NCCLS M100-S14), H. influenzae 1218 (susceptible)
Assay type: cell-based
recorded conditions: Haemophilus influenzae 1218
API: value field is a number in µg/mL; no unit string.

Which MIC H. influenzae 1218 is reported for this compound? CCC1OC(=O)C(C)C(=O)C(C)C(OC2OC(C)CC(N(C)C)C2O)C(C)(OC)CC(C)C(=O)C(C)C2N(CC3CN(C(=O)c4cc(F)ccc4F)C3)C(=O)OC12C (centres unmarked) 3.12

Which MIC H. influenzae 1218 is reported for this compound? CC[C@H]1OC(=O)[C@H](C)C(=O)[C@H](C)[C@@H](O[C@@H]2O[C@H](C)C[C@H](N(C)C)[C@H]2O)[C@](C)(OC)C[C@@H](C)C(=O)[C@H](C)[C@H]2N(C3CN([C@H](C)c4ccnc5ncccc45)C3)C(=O)O[C@]12C 0.5

Which MIC H. influenzae 1218 is reported for this compound? CCC1OC(=O)C(C)C(=O)C(C)C(OC2OC(C)CC(N(C)C)C2O)C(C)(OC)CC(C)C(=O)C(C)C2N(C3CN(Cc4ccc(OC)c5ncccc45)C3)C(=O)OC12C (centres unmarked) 1

Which MIC H. influenzae 1218 is reported for this compound? CCC1OC(=O)C(C)C(=O)C(C)C(OC2OC(C)CC(N(C)C)C2O)C(C)(OC)CC(C)C(=O)C(C)C2N(C3CN(S(=O)(=O)c4ccc5nn(C)cc5c4)C3)C(=O)OC12C (centres unmarked) 1

Which MIC H. influenzae 1218 is reported for this compound? CCC1OC(=O)C(C)C(=O)C(C)C(OC2OC(C)CC(N(C)C)C2O)C(C)(OC)CC(C)C(=O)C(C)C2N(C3CN(S(=O)(=O)c4cccc(-c5cnco5)c4)C3)C(=O)OC12C (centres unmarked) 0.12
